assay.name: BSK_4H_SRB: Viability Assessment in the BioMAP Diversity Plus: 4H Assay (AID 2283027);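 note: cells exposed to compound for 24 h before staining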
condition.parameters: primary human endothelial cells (HUVEC)
Active and inactive are the calls of the source. Rule for the calls: active = hit-call score of the fitted dose curve at least 0.9, where 1 is the maximum; inactive = score below 0.9.
Outcomes: true = active, false = inactive

[[record]]
compound = "CCOc1cc(C(C)(C)C)ccc1C1COC(c2c(F)cccc2F)=N1 (stereo not drawn)"
category_label = "true"

[[record]]
compound = "CS(=O)(=O)c1ccc(C(=O)C2C(=O)CCCC2=O)c([N+](=O)[O-])c1"
category_label = "false"

[[record]]
compound = "Nc1c(Cl)c(F)nc(OCC(=O)O)c1Cl"
category_label = "false"

[[record]]
compound = "CC(C)Nc1nc(Cl)nc(NC(C)C)n1"
category_label = "false"

[[record]]
compound = "CC(C)N1C(=O)N(c2ccccc2)CSC1=NC(C)(C)C"
category_label = "true"

[[record]]
compound = "O=C(Nc1ccccc1-c1ccc(Cl)cc1)c1cccnc1Cl"
category_label = "false"

[[record]]
compound = "CO/N=C(/C1=NOCCO1)c1ccccc1Oc1ncnc(Oc2ccccc2Cl)c1F"
category_label = "true"

[[record]]
compound = "COCC(=O)N(c1c(C)cccc1C)C(C)C(=O)OC (stereo not drawn)"
category_label = "false"

[[record]]
compound = "Nc1cnn(-c2ccccc2)c(=O)c1Cl"
category_label = "false"

[[record]]
compound = "CC(C)NC(=O)N1CC(=O)N(c2cc(Cl)cc(Cl)c2)C1=O"
category_label = "false"

[[record]]
compound = "CN=C=S"
category_label = "false"

[[record]]
compound = "COc1ccc(-c2ccccc2)cc1NNC(=O)OC(C)C"
category_label = "false"

[[record]]
compound = "Clc1nc(Cl)nc(Nc2ccccc2Cl)n1"
category_label = "false"

[[record]]
compound = "CCC(C)n1c(=O)[nH]c(C)c(Br)c1=O (stereo not drawn)"
category_label = "false"

[[record]]
compound = "COP(=S)(OC)Oc1ccc([N+](=O)[O-])c(C)c1"
category_label = "false"

[[record]]
compound = "O=C(O)c1c(Cl)ccc2cc(Cl)cnc12"
category_label = "false"

[[record]]
compound = "CSC(=O)c1c(C(F)F)nc(C(F)(F)F)c(C(=O)SC)c1CC(C)C"
category_label = "true"

[[record]]
compound = "Cc1nc(N(C)C)nc(OC(=O)N(C)C)c1C"
category_label = "false"

[[record]]
compound = "COP(=S)(OC)SCn1nnc2ccccc2c1=O"
category_label = "false"

[[record]]
compound = "Cc1cnc(C2=NC(C)(C(C)C)C(=O)N2)c(C(=O)O)c1 (stereo not drawn)"
category_label = "false"

[[record]]
compound = "CCCN(CC)CC1COC2(CCC(C(C)(C)C)CC2)O1 (stereo not drawn)"
category_label = "false"

[[record]]
compound = "O=c1n(Cl)c(=O)n(Cl)c(=O)n1Cl"
category_label = "false"

[[record]]
compound = "O=C1C2CC=CCC2C(=O)N1SC(Cl)(Cl)Cl (stereo not drawn)"
category_label = "false"

[[record]]
compound = "CCCCC(O)(Cn1cncn1)c1ccc(Cl)cc1Cl (stereo not drawn)"
category_label = "true"

[[record]]
compound = "COP(=O)(OC)O/C(C)=C/C(=O)N(C)C"
category_label = "false"

[[record]]
compound = "CC1(C)C(C(=O)OC(C#N)c2cccc(Oc3ccccc3)c2)C1(C)C (stereo not drawn)"
category_label = "false"

[[record]]
compound = "CCCCOCN(C(=O)CCl)c1c(CC)cccc1CC"
category_label = "true"

[[record]]
compound = "CNC(=O)Oc1cccc2ccccc12"
category_label = "false"


# credit: PubChem BioAssay (EPA / NIEHS)
